# merged literature set: pIC50 with UGT1A6 (Homo sapiens, UniProt P19224)
pIC50: −log10 of the molar value.
readout-type: pIC50

O=C1CC(c2cc(-c3c(O)ccc4c(=O)cc(-c5ccc(O)cc5)oc34)c(O)cc2O)Oc2cc(O)cc(O)c21 (stereo not drawn) = 4.34

(a) C[C@@H]1[C@H]2c3cc4c(cc3O[C@@]35OCOC3=CC(=O)[C@H](C[C@H]1C)[C@@H]25)OCO4
(b) COc1ccc(C(=C2C=CC(=O)C=C2)c2c(-c3ccc(O)cc3)ccc(CO)c2C#Cc2ccc(O)cc2)cc1
Request: Which value of pIC50 is numerically greater: that of a or that of b ? Write down the label of the entry you select.
Result: a
(a: 6.12, b: 4.44)
